# Test system: spontaneously hypertensive rats
# assay_remarks: Antihypertensive action, tail-cuff method, single oral dose
# Assay type: in vivo
# assay_setup: difference in blood pressure before and after administration; 10 mg/kg oral; an hour after the administration; two rats
Structures can show the parent of a compound that is named as a salt.

molecule	target_of_assay	Antihypertensive Action / mmHg
COC(=O)C1=C(C)NC(C)=C(C(=O)OCC2(CN3CCN(C)CC3)CCCCC2)C1c1cccc([N+](=O)[O-])c1 (single isomer, unassigned) [Example 24]	spontaneously hypertensive rats	-79
COC(=O)C1=C(C)NC(C)=C(C(=O)OCC2(CN3CCOCC3)CCCCC2)C1c1cccc([N+](=O)[O-])c1 (single isomer, unassigned) [Example 23]	spontaneously hypertensive rats	-87
COC(=O)C1=C(C)NC(C)=C(C(=O)OCC2(CN3CCCCC3)CCCCC2)C1c1cccc([N+](=O)[O-])c1 (single isomer, unassigned; (+)) [Example 19, hydrochloride]	spontaneously hypertensive rats	-75
CC1=C(C(=O)OCC2(CN(C)C)CCCCC2)C(c2cccc([N+](=O)[O-])c2)C(C(=O)OC(C)C)=C(C)N1 (racemic) [Example 5]	spontaneously hypertensive rats	-68

---

# Test system: spontaneously hypertensive rats
# assay_remarks: Antihypertensive action, tail-cuff method, single oral dose
# Assay type: in vivo
# assay_setup: difference in blood pressure before and after administration; 10 mg/kg oral; an hour after the administration; two rats
# label = True if Antihypertensive Action >= -100 mmHg else False

molecule	category
CCN(CC)CC1(COC(=O)C2=C(C)NC(C)=C(C(=O)OC)C2c2cccc([N+](=O)[O-])c2)CCCCC1 (racemic)	False
COC(=O)C1=C(C)NC(C)=C(C(=O)OCC2(CN(C)Cc3ccccc3)CCCCC2)C1c1cccc([N+](=O)[O-])c1.Cl (racemic) [Example 1]	False
COC(=O)C1=C(C)NC(C)=C(C(=O)OCC2(CN(C)Cc3ccc(F)cc3)CCCCC2)C1c1cccc([N+](=O)[O-])c1 (racemic) [Example 15]	False
CCOC(=O)C1=C(C)NC(C)=C(C(=O)OCC2(CN(C)C)CCCCC2)C1c1cccc([N+](=O)[O-])c1 (racemic)	True
COC(=O)C1=C(C)NC(C)=C(C(=O)OCC2(CN3CCN(C)CC3)CCCCC2)C1c1cccc([N+](=O)[O-])c1 (racemic) [Example 11]	True
COC(=O)C1=C(C)NC(C)=C(C(=O)OCC2(CN(C)Cc3ccc(Cl)cc3)CCCCC2)C1c1cccc([N+](=O)[O-])c1 (single isomer, unassigned)	False
COC(=O)C1=C(C)NC(C)=C(C(=O)OCC2(CN3CCN(Cc4ccccc4)CC3)CCCCC2)C1c1cccc([N+](=O)[O-])c1 (racemic) [Example 10]	False
COC(=O)C1=C(C)NC(C)=C(C(=O)OCC2(CN3CCN(C(c4ccccc4)c4ccccc4)CC3)CCCCC2)C1c1cccc([N+](=O)[O-])c1 (racemic)	False
COC(=O)C1=C(C)NC(C)=C(C(=O)OCC2(CN3CCN(c4ccccc4)CC3)CCCCC2)C1c1cccc([N+](=O)[O-])c1 (racemic) [Example 3]	False
COC(=O)C1=C(C)NC(C)=C(C(=O)OC)C1c1ccccc1[N+](=O)[O-] [Nifedipine, nifedipine, reference compound]	True
COC(=O)C1=C(C)NC(C)=C(C(=O)OCC2(CN(C)Cc3ccc(F)cc3)CCCCC2)C1c1cccc([N+](=O)[O-])c1 (single isomer, unassigned) [Example 26]	False
COC(=O)C1=C(C)NC(C)=C(C(=O)OCC2(CN3CCOCC3)CCCCC2)C1c1cccc([N+](=O)[O-])c1 (racemic) [Example 12]	False
